Reported normalized growth values are given for each entry in this list.
assay-method-text: chemical genetic growth profiling, strain panel (AID 1159580);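 note: tested at 20 µM; growth read once vehicle control cultures reached saturation at 30 °C; 1 = growth at the plate median or of vehicle wells; lower values mean less growth of the strain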
cond: S. cerevisiae deletion strains, growth OD, locus YDR137W, strain rgp1, active compounds read low
Among all 5,500 compounds or so, about 2,000 (36%) were called active. Another 18% or so got no clear call; they are omitted. Some of the results follow.

[
  {
    "compound": "NCCc1cc(O)c(O)cc1O",
    "normalized growth": 0.993
  },
  {
    "compound": "c1ccc([C@H]2CN3CCSC3=N2)cc1",
    "normalized growth": 1.04
  },
  {
    "compound": "C[C@]12CCC(=O)C=C1CCC1C2[C@@H](O)C[C@@]2(C)C1CC[C@]2(O)C(=O)COC(=O)CCC(=O)O (stereo not given in full)",
    "normalized growth": 1.02
  },
  {
    "compound": "COc1cc(O)cc(OC)c1OC",
    "normalized growth": 0.998
  },
  {
    "compound": "O=c1oc2c(O)c(O)cc3c(=O)oc4c(O)c(O)cc1c4c23",
    "normalized growth": 0.496
  },
  {
    "compound": "CC1(C)S[C@@H]2[C@H](NC(=O)Cc3ccccc3)C(=O)N2[C@H]1C(=O)O",
    "normalized growth": 1.03
  },
  {
    "compound": "CC(=O)OCC(=O)[C@@]1(O)CCC2C3CCC4=CC(=O)CC[C@]4(C)C3[C@@H](O)C[C@@]21C (stereo not given in full)",
    "normalized growth": 1.05
  },
  {
    "compound": "CC(=O)O[C@H]1CC[C@]2(C)C3CC(=O)[C@]4(C)C(C(C)=O)=CCC4C3CC[C@H]2C1 (stereo not given in full)",
    "normalized growth": 0.924
  },
  {
    "compound": "COc1cccc(OC)c1C(=O)N[C@@H]1C(=O)N2[C@@H]1SC(C)(C)[C@@H]2C(=O)O",
    "normalized growth": 1.03
  },
  {
    "compound": "CC(=O)OCC(=O)[C@@]12OC3(CCCC3)O[C@@H]1CC1C3CCC4=CC(=O)C=C[C@]4(C)[C@@]3(F)[C@@H](O)C[C@@]12C (stereo not given in full)",
    "normalized growth": 1.02
  }
]

====

Below, each entry is listed alongside its reported normalized growth.
assay-method-text: chemical genetic growth profiling, strain panel (AID 1159580)
cond: S. cerevisiae deletion strains, growth OD, locus YNL128W, strain TEP1, active compounds read low
The campaign covered roughly 5,500 compounds. About 2,000 (36%) were called active. Not shown: some 18% with an inconclusive outcome. The list shows a part of the results.

[
  {
    "molecule": "CCCc1nc2c(C)cc(-c3nc4ccccc4n3C)cc2n1Cc1ccc(-c2ccccc2C(=O)O)cc1",
    "normalized growth": 1.01
  },
  {
    "molecule": "CCC1C(=O)OCC1Cc1cncn1C (stereo not drawn)",
    "normalized growth": 1.01
  },
  {
    "molecule": "O=C(Nc1cccnc1)c1cccc(Cl)c1Cl",
    "normalized growth": 0.976
  },
  {
    "molecule": "O=[N+]([O-])c1ccc(-c2nn[nH]n2)cc1",
    "normalized growth": 0.971
  },
  {
    "molecule": "OCCN1CCN(CC/C=C2/c3ccccc3Sc3ccc(C(F)(F)F)cc32)CC1",
    "normalized growth": 1.02
  },
  {
    "molecule": "c1ccc([C@H]2CN3CCSC3=N2)cc1",
    "normalized growth": 1.01
  },
  {
    "molecule": "CC[C@H]1CN2CCc3cc(OC)c(OC)cc3C2C[C@@H]1CC1NCCc2cc(OC)c(OC)cc21 (stereo partly drawn)",
    "normalized growth": 1.01
  },
  {
    "molecule": "Nc1ncnc2c1ncn2[C@@H]1O[C@H](C(=O)NC2CC2)[C@H](O)C1O (stereo partly drawn)",
    "normalized growth": 0.998
  }
]

====

assay-method-text: chemical genetic growth profiling, strain panel (AID 1159580);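 note: tested at 20 µM; growth read once vehicle control cultures reached saturation at 30 °C; 1 = growth at the plate median or of vehicle wells; lower values mean less growth of the strain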
cond: S. cerevisiae deletion strains, growth OD, locus YDR001C, strain nth1, active compounds read low
The whole screen tested about 5,500 compounds, of which about 2,000 (36%) were called active. About 18% were inconclusive and are not listed. This is one part of the list.

[
  {
    "molecule": "CC[C@@H](CO)NC(=O)[C@@H]1C=C2c3cccc4[nH]cc(c34)C[C@H]2N(C)C1",
    "normalized growth": 0.998
  },
  {
    "molecule": "COc1ccc2c(=O)ccoc2c1",
    "normalized growth": 1.02
  },
  {
    "molecule": "CC(=O)O[C@@H]1CC[C@]2(C)C3CC[C@]4(C)C(=O)CCC4C3CC[C@H]2C1 (some centres undefined)",
    "normalized growth": 0.997
  },
  {
    "molecule": "COc1c2ccoc2cc2oc(C)cc(=O)c12",
    "normalized growth": 0.997
  }
]

====

assay-method-text: chemical genetic growth profiling, strain panel (AID 1159580);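 note: tested at 20 µM; growth read once vehicle control cultures reached saturation at 30 °C; 1 = growth at the plate median or of vehicle wells; lower values mean less growth of the strain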
cond: S. cerevisiae deletion strains, growth OD, locus YER015W, strain faa2
Screen size: about 5,500 compounds; about 2,000 (36%) were called active. Another 18% or so got no clear call; they are omitted. No stated cut-off is given here; in the data, active means normalized growth mostly below about 0.91 (no sharp cut-off); inconclusive means no clear call, values can overlap the other calls; inactive means mostly above about 0.92. This is one part of the list.
Outcome codes: y for active, n for inactive

[
  {
    "compound": "CC1=C(O)C(=O)C=C2C1=CC=C1[C@@]2(C)CC[C@@]2(C)[C@@H]3C[C@](C)(C(=O)O)CC[C@]3(C)CC[C@]12C",
    "label": "y"
  },
  {
    "compound": "COC(=O)C[C@H]1C(C)(C)[C@@H](O)[C@@H]2CC3=C4C=C(OC)O[C@@H](c5ccoc5)[C@]4(C)CCC3[C@@]1(C)C2=O (stereo partly drawn)",
    "label": "n"
  },
  {
    "compound": "NCCNCCNCCN",
    "label": "n"
  }
]

====

assay-method-text: chemical genetic growth profiling, strain panel (AID 1159580);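 note: tested at 20 µM; growth read once vehicle control cultures reached saturation at 30 °C; 1 = growth at the plate median or of vehicle wells; lower values mean less growth of the strain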
cond: S. cerevisiae deletion strains, growth OD, locus YGR135W, strain pre9, active compounds read low
The campaign covered roughly 5,500 compounds. About 2,000 (36%) were called active. About 18% were inconclusive and are not listed. The list shows a part of the results.
Parameter normalized growth: see the listing below.

[
  {
    "compound": "CN1C(=O)CCS(=O)(=O)C1c1ccc(Cl)cc1 (centres undefined)",
    "normalized growth": 1.01
  },
  {
    "compound": "CC1=CC2C(C(C)C)CCC(C)(O)C2CC1 (centres undefined)",
    "normalized growth": 1.08
  },
  {
    "compound": "COc1ccc([C@H]2COc3c(ccc(O)c3OC)C2)c(OC)c1O",
    "normalized growth": 0.986
  },
  {
    "compound": "O=C(O)[C@H](O)[C@@](O)(Cc1ccc(O)cc1)C(=O)O",
    "normalized growth": 0.987
  },
  {
    "compound": "CCOC([O-])=Nc1c[n+](N2CCOCC2)no1",
    "normalized growth": 0.986
  },
  {
    "compound": "O=C1c2ccccc2C(=O)C1c1ccccc1",
    "normalized growth": 1.01
  },
  {
    "compound": "CC(=O)OCC1=C(C(=O)O)N2C(=O)[C@@H](NC(=O)CCCC(N)C(=O)O)C2SC1 (some centres undefined)",
    "normalized growth": 1.06
  },
  {
    "compound": "CN1CCN(CCCN2c3ccccc3Sc3ccc(C(F)(F)F)cc32)CC1",
    "normalized growth": 0.0937
  },
  {
    "compound": "CC(=O)OCC(=O)[C@@]1(O)CCC2C3CC[C@@H]4C[C@H](OC(C)=O)CC[C@]4(C)C3C(=O)C[C@@]21C (some centres undefined)",
    "normalized growth": 1
  },
  {
    "compound": "CC(=O)Oc1cccc(C(=O)O)c1OC(C)=O",
    "normalized growth": 1.04
  },
  {
    "compound": "CC(=O)[O][Hg][c]1ccccc1",
    "normalized growth": 0.0651
  },
  {
    "compound": "CC(=O)O[C@H]1CC[C@]2(C)C3CC[C@@]4(C)C(CC5O[C@@]6(CCC(C)CO6)[C@@H](C)C54)C3CC[C@@H]2C1 (some centres undefined)",
    "normalized growth": 0.97
  },
  {
    "compound": "CC1(C)C(=O)[C@@H]2C[C@@]3(O)C4=CC(=O)O[C@@H](c5ccoc5)[C@]4(C)CCC3[C@@](C)(C2=O)[C@H]1CC(=O)O (some centres undefined)",
    "normalized growth": 0.997
  },
  {
    "compound": "CC(=O)OC1CCC2(C)C3CC(=O)C4(C)C(CC5OC6(CCC(C)CO6)[C@@H](C)C54)C3CC[C@H]2C1 (some centres undefined)",
    "normalized growth": 0.977
  }
]
